Values were extracted from patent US20240393292A1.

Tested on: IgE antibodies from patients
Test: Wheat epitope mapping (2): overlapping 10-amino-acid peptide fragments shifted by one amino acid
Format: binding, human
Conditions: serum of patient G7 (adult, general immediate type allergy to wheat); sequence without X
value_kind: Epitope sequence binding to IgE antibody, rank of the sequence

substance: 1296 (ILPRSDCKV; REGION 1..9: note = epitope) [compound 1296]
result: Key
//
substance: 1366 (INVEN; REGION 1..5: note = epitope) [compound 1366]
result: Key
//
substance: 1295 (VSMILPRSD; REGION 1..9: note = epitope) [compound 1295]
result: Key

---

Tested on: IgE antibodies from patients
Test: Wheat epitope mapping (2): overlapping 10-amino-acid peptide fragments shifted by one amino acid;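 as to Rank of partial sequence as epitope binding to IgE antibody: key = sequence deemed particularly important within the common 15-residue sequence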
Type: binding, human
Conditions: serum of patient P15 (WDEIA); sequence without X
value_kind: Rank of partial sequence as epitope binding to IgE antibody

substance: 1432 (SQQQAQ; REGION 1..6: note = epitope) [compound 1432]
result: Key

substance: 1613 (YNPD; REGION 1..4: note = epitope) [compound 1613]
result: Key

substance: 1431 (YLQPQQP; REGION 1..7: note = epitope) [compound 1431]
result: Key

---

Tested on: IgE antibodies from patients
Test: Wheat epitope mapping (2): overlapping 10-amino-acid peptide fragments shifted by one amino acid
Format: binding, human
Conditions: serum of patient P34 (WDEIA); partial sequence
value_kind: Epitope sequence binding to IgE antibody, rank of the sequence

substance: 2745 (KIGGIG; REGION 1..6: note = epitope) [compound 2745]
result: Preferably

substance: 2693 (YKGPTL; REGION 1..6: note = epitope) [compound 2693]
result: Key

substance: 2746 (KIGGI; REGION 1..5: note = epitope) [compound 2746]
result: Key

substance: 2590 (QLVQQLCC; REGION 1..8: note = epitope) [compound 2590]
result: Preferably

As a next step, examine the substance that follows.
## Task Bench note: what Epitope sequence binding to IgE antibody, rank of the sequence did 2591 (QLVQQL; REGION 1..6: note = epitope) [compound 2591] show?
## Result Key

---

System: IgE antibodies from patients
Assay: Wheat epitope mapping (2): overlapping 10-amino-acid peptide fragments shifted by one amino acid
Type: binding, human
Conditions: serum of patient P14 (WDEIA); sequence without X
Description: The peptides to be synthesized were shifted by one amino acid. The library was prepared by the same procedure as described above in (A), and the presence or absence of binding of an IgE antibody present in the serum of a patient to each peptide fragment was measured by the same technique as described above. […]
value_kind: Epitope sequence binding to IgE antibody, rank of the sequence

The following substances have reported results that may help.
substance: 1183 (QQFPPQQ; REGION 1..7: note = epitope) [compound 1183]
result: Key

substance: 1388 (QQPLPPQQQ; REGION 1..9: note = epitope) [compound 1388]
result: Preferably

substance: 1234 (PQQPP; REGION 1..5: note = epitope) [compound 1234]
result: Key

substance: 1385 (KPWQQQPLP; REGION 1..9: note = epitope) [compound 1385]
result: Preferably

As a next step, examine the substance that follows.
## Task What reported Epitope sequence binding to IgE antibody, rank of the sequence corresponds to 1316 (VEDNRRALR; REGION 1..9: note = epitope) [compound 1316] on IgE antibodies from patients?
## Result Key

---

Test system: IgE antibodies from patients
Assay: Wheat epitope mapping (2): overlapping 10-amino-acid peptide fragments shifted by one amino acid;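 as to epitope sequence binding to IgE antibody, rank (Key/Preferably/More preferably): key of grades: preferably = shorter partial sequence still acting as epitope; more preferably = sequence improving IgE binding; key = particularly important sequence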
Assay type: binding, human
Settings: serum of patient P34 (WDEIA)
Procedure: The peptides to be synthesized were shifted by one amino acid. The library was prepared by the same procedure as described above in (A), and the presence or absence of binding of an IgE antibody present in the serum of a patient to each peptide fragment was measured by the same technique as described above. […]
value_kind: epitope sequence binding to IgE antibody, rank (Key/Preferably/More preferably)

The following substances have reported results that may help.
substance: 1967 (VPLVQQQ; REGION 1..7: note = epitope) [compound 1967]
result: Key
//
substance: 1711 (KEAANFT; REGION 1..7: note = epitope) [compound 1711]
result: Preferably
//
substance: 1821 (SGKELEALPK; REGION 1..10: note = epitope) [compound 1821]
result: Key
//
substance: 1883 (VRTLQ; REGION 1..5: note = epitope) [compound 1883]
result: Key
//
substance: 1882 (TVRTLQRT; REGION 1..8: note = epitope) [compound 1882]
result: Preferably
//
substance: 1712 (EAANF; REGION 1..5: note = epitope) [compound 1712]
result: Key

As a next step, examine the substance that follows.
## Task Bench note: what epitope sequence binding to IgE antibody, rank (Key/Preferably/More preferably) did 1968 (QFPGQQ; REGION 1..6: note = epitope) [compound 1968] show?
## Result Key

---

Tested on: IgE antibodies from patients
Assay: Wheat epitope mapping (2): overlapping 10-amino-acid peptide fragments shifted by one amino acid;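 as to epitope sequence binding to IgE antibody, rank (Key/Preferably/More preferably): key of grades: preferably = shorter partial sequence still acting as epitope; more preferably = sequence improving IgE binding; key = particularly important sequence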
Assay type: binding, human
Settings: serum of patient P17 (WDEIA)
value_kind: epitope sequence binding to IgE antibody, rank (Key/Preferably/More preferably)

substance: 1759 (YLKK; REGION 1..4: note = epitope) [compound 1759]
result: Key

substance: 1933 (VPLVQQ; REGION 1..6: note = epitope) [compound 1933]
result: Key

---

System: IgE antibodies from patients
Experiment: Wheat epitope mapping (2): overlapping 10-amino-acid peptide fragments shifted by one amino acid
Type: binding, human
Settings: serum of patient P27 (WDEIA); partial sequence
value_kind: Epitope sequence binding to IgE antibody, rank of the sequence

substance: 2727 (GIGTVPVGR; REGION 1..9: note = epitope) [compound 2727]
result: Key

substance: 2685 (YKGPTL; REGION 1..6: note = epitope) [compound 2685]
result: Preferably

substance: 2569 (QLVQQL; REGION 1..6: note = epitope) [compound 2569]
result: Preferably

substance: 2725 (YKIGG; REGION 1..5: note = epitope) [compound 2725]
result: Preferably

substance: 2570 (QLVQQ; REGION 1..5: note = epitope) [compound 2570]
result: Key

As a next step, examine the substance that follows.
## Task Bench note: what Epitope sequence binding to IgE antibody, rank of the sequence did 2726 (KIGG; REGION 1..4: note = epitope) [compound 2726] show?
## Result Key

---

System: IgE antibodies from patients
Test: Wheat epitope mapping (2): overlapping 10-amino-acid peptide fragments shifted by one amino acid;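 as to epitope sequence binding to IgE antibody, rank (Key/Preferably/More preferably): key of grades: preferably = shorter partial sequence still acting as epitope; more preferably = sequence improving IgE binding; key = particularly important sequence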
Type: binding, human
Settings: serum of patient P36 (WDEIA)
value_kind: epitope sequence binding to IgE antibody, rank (Key/Preferably/More preferably)

substance: 1886 (TVRTLQRT; REGION 1..8: note = epitope) [compound 1886]
result: Key
//
substance: 1824 (LPKFLK; REGION 1..6: note = epitope) [compound 1824]
result: Key

---

Test system: IgE antibodies from patients
Assay: Wheat epitope mapping (2): overlapping 10-amino-acid peptide fragments shifted by one amino acid
Type: binding, human
Conditions: serum of patient P36 (WDEIA); sequence without X
value_kind: Epitope sequence binding to IgE antibody, rank of the sequence

The following substances have reported results that may help.
substance: 1356 (INVEN; REGION 1..5: note = epitope) [compound 1356]
measured_target: IgE antibodies from patients
result: Preferably
--
substance: 1256 (PQQPP; REGION 1..5: note = epitope) [compound 1256]
measured_target: IgE antibodies from patients
result: Key
--
substance: 1253 (PIQQQPQPFP; REGION 1..10: note = epitope) [compound 1253]
measured_target: IgE antibodies from patients
result: Preferably
--
substance: 1254 (PIQQQP; REGION 1..6: note = epitope) [compound 1254]
measured_target: IgE antibodies from patients
result: Key
--
substance: 1357 (NVEN; REGION 1..4: note = epitope) [compound 1357]
measured_target: IgE antibodies from patients
result: Key

## Task Bench note: what Epitope sequence binding to IgE antibody, rank of the sequence did 1255 (PQQPPC; REGION 1..6: note = epitope) [compound 1255] show?
## Result Preferably

## Task Bench note: what Epitope sequence binding to IgE antibody, rank of the sequence did 1358 (VEDNRRALR; REGION 1..9: note = epitope) [compound 1358] show?
## Result Preferably

---

Tested on: IgE antibodies from patients
Assay: Wheat epitope mapping (2): overlapping 10-amino-acid peptide fragments shifted by one amino acid
Type: binding, human
Settings: serum of patient P2 (WDEIA); partial sequence
value_kind: Epitope sequence binding to IgE antibody, rank of the sequence

The following substances have reported results that may help.
substance: 2615 (SLSKRV; REGION 1..6: note = epitope) [compound 2615]
result: Key

substance: 2547 (QSTYQLVQQL; REGION 1..10: note = epitope) [compound 2547]
result: Preferably

substance: 2494 (QVSF; REGION 1..4: note = epitope) [compound 2494]
result: Key

substance: 2549 (QLVQQLCC; REGION 1..8: note = epitope) [compound 2549]
result: Key

substance: 2614 (AKPLL; REGION 1..5: note = epitope) [compound 2614]
result: Key

substance: 2495 (FQPSQLNPQ; REGION 1..9: note = epitope) [compound 2495]
result: Key

substance: 2548 (QSTY; REGION 1..4: note = epitope) [compound 2548]
result: Key

As a next step, examine the substance that follows.
## Task What reported Epitope sequence binding to IgE antibody, rank of the sequence corresponds to 2493 (SSQVSF; REGION 1..6: note = epitope) [compound 2493] on IgE antibodies from patients?
## Result Preferably
